# Tested on: MCF-7 cells
# Test summary: Cell growth inhibition bioassay (sulforhodamine B)
# Type: cell-based, human
# Stated conditions: Homo sapiens, MCF7; 48 h, SRB; read-out: GI50 in indicated cell line: MCF-7
// classify: if (GI50 < 2 µg/mL) 1 else -1

Oc1ccc(/C=N\Nc2ncnc3sc4c(c23)CCCC4)cc1 [II-09] : -1

Query block: Criterion: GI50 strictly below 2 µg/mL. Is it met by C(=N/Nc1ncnc2sc3c(c12)CCCC3)/c1ccccc1 [II-01] ?
Result block: -1

Query block: State whether 2 µg/mL exceeds GI50 recorded for C/C(=N/Nc1ncnc2sc3c(c12)CCCC3)c1ccccc1 [II-47] .
Result block: -1

---

# Test summary: Cytotoxicity on VERO cells (MTT), anti-T. cruzi study
# Stated conditions: African green monkey
Measurement type: IC50 (µg/mL)
Give the value, in units of µg/mL, as a plain number.

Query block: Supply recorded IC50 for C=CCOc1cc(OC)c(C(=O)/C=C/c2ccccc2Br)c(OCC=C)c1 [Compound I-16] here.
Result block: 6

---

# Test summary: Cytotoxicity on VERO cells (MTT), anti-T. cruzi study
# Stated conditions: African green monkey, VERO cells, IC50 - VERO Cytotoxicity, Table 2
// assign satisfied if IC50 falls strictly below 6 µg/mL, else not satisfied (ties count as not satisfied)

Worked cases, answers included:
C=CCOc1cc(OC)c(C(=O)/C=C/c2cccc(OC)c2)c(OCC=C)c1 : not satisfied
C=CCOc1cc(OC)c(C(=O)/C=C/c2ccc(O)cc2)c(OCC=C)c1 : not satisfied
C=CCOc1cc(OC)c(C(=O)/C=C/c2ccccn2)c(OCC=C)c1 : satisfied

Query block: # check: IC50 < 6 µg/mL for Clc1ccc(/C=N\Nc2ncnc3sc4c(c23)CCCC4)cc1
Result block: not satisfied

---

# System: Trypanosoma cruzi (Tulahuen C4)
# Test summary: In vitro anti-T. cruzi activity (β-galactosidase CPRG colorimetric assay in VERO monolayer)
# Type: cell-based
# Stated conditions: Trypanosoma cruzi, TULAHUEN, Vero, Table 3; read-out: IC50 T. cruzi
pIC50: −log10 of the molar value.
Returns one of met or not met; met when pIC50 is >= 5.

COc1cc(O)c(C(=O)/C=C/c2ccc3c(c2)OCO3)c(OC)c1 [Compound I-02] : not met
C=CCOc1cc(OC)c(C(=O)/C=C/c2ccccn2)c(OCC=C)c1 [Compound I-27] : met
C=CCOc1cc(OC)c(C(=O)/C=C/c2ccc(OC)cc2)c(OCC=C)c1 [Compound I-10] : not met
C=CCOc1cc(OC)c(C(=O)/C=C/c2cc(OC)c(OC)c(OC)c2)c(OCC=C)c1 [Compound I-20] : met
C=CCOc1cc(OC)c(C(=O)/C=C/c2cccc(OC)c2)c(OCC=C)c1 [Compound I-11] : not met

Query block: Check this compound for pIC50 at or above 5: C=CCOc1cc(OC)c(C(=O)/C=C/c2ccccc2)c(OCC=C)c1 [Compound I-08]
Result block: not met

---

# Test summary: Cytotoxicity VERO cell (Table 6)
# Stated conditions: African green monkey, VERO cells
Measurement type: log10(IC50) (log10 of the value in µg/mL)
Record value = log10 of IC50 given in µg/mL.

As a guide, the following entries are already answered.
Oc1ccc(/C=N\Nc2ncnc3sc4c(c23)CCCC4)cc1 [II-09] : 1.16
COc1ccc(/C=N\Nc2ncnc3sc4c(c23)CCCC4)cc1 [II-10] : 1.88
FC(F)(F)c1ccc(/C=N\Nc2ncnc3sc4c(c23)CCCC4)cc1 [II-24] : 1.53
C(=N/Nc1ncnc2sc3c(c12)CCCC3)/c1ccco1 [II-18] : 1.09
Brc1ccccc1/C=N\Nc1ncnc2sc3c(c12)CCCC3 [II-31] : 0.89
C/C(=N/Nc1ncnc2sc3c(c12)CCCC3)c1ccccc1 [II-47] : 1.51

Query block: Please look at this compound and report its log10(IC50): COc1cccc(/C=N\Nc2ncnc3sc4c(c23)CCCC4)c1 [II-11]
Result block: 1.36

Query block: Give log10(IC50) for Clc1ccccc1/C=N\Nc1ncnc2sc3c(c12)CCCC3 [II-29]
Result block: 1.47

Query block: Return log10(IC50) (reported value) for this compound: C(=N/Nc1ncnc2sc3c(c12)CCCC3)/c1ccccn1 [II-21]
Result block: 1.03

Query block: State its log10(IC50): C(=N/Nc1ncnc2sc3c(c12)CCCC3)/c1ccc[nH]1 [II-19]
Result block: 0.60

Query block: Please report log10(IC50) for the following compound: CCC(CC)=NNc1ncnc2sc3c(c12)CCCC3 [II-48]
Result block: 1.52

Query block: Note log10(IC50) for the compound shown: C(=N/Nc1ncnc2sc3c(c12)CCCC3)/c1ccccc1 [II-01]
Result block: 1.05
